Below, each entry is listed alongside its reported RBL-ER51 calcium signalling IC50 (Geomean), Human IgE.
# target entity: human IgEλ (U266 derived) (human, UniProt P01854-1 1-428)
# Sequence (P01854 other isoform, or with tags, fused parts or gaps): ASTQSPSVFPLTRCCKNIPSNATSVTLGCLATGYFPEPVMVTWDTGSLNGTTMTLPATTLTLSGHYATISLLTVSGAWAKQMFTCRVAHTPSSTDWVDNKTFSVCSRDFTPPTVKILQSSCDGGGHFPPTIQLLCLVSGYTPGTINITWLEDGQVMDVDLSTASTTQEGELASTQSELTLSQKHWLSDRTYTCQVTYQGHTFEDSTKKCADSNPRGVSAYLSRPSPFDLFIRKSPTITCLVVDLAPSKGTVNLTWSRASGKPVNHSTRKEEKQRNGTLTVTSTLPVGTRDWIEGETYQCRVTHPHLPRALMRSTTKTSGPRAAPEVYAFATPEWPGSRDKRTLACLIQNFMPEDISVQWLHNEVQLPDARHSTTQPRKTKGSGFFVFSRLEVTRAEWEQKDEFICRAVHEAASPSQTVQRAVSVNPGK
# experimental details: cell-based or functional assay
Write the answer as a number in nM, unit excluded.

The cases that follow already have their RBL-ER51 calcium signalling IC50 (Geomean), Human IgE on record.
Reported RBL-ER51 calcium signalling IC50 (Geomean), Human IgE for Antibody 23 IgG (antibody, V domains shown, Whole human IgG (section 1.4: IgG1)) VH: QVQLVQSGAEVKKPGATVKLSCKVYGYIFTDYNIYWVRQAPGKGLEWMGLIDPDNGETFYAEKFQGRATMTADTSSDRAYMELTSLTFEDTATYYCATVMGKWIKGGYDYWGRGTLVTVSS VL: QSVLTQPPSVSGAPGQRVTISCTGSSSNIGAGYDVHWYQQLPGTAPKLLIYDNFNRPSGVPDRFSGSKSGTSASLAIIGLQTEDEADYYCQSYDSHHLYSSFGTGTKLTVL : what is it?
0.109

I have this binder here, Antibody 12 IgG (antibody, V domains shown, Whole human IgG (section 1.4: IgG1)) VH: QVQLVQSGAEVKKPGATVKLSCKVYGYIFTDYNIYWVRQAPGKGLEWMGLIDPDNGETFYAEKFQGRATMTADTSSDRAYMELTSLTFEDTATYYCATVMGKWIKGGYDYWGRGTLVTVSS VL: QSVLTQPPSVSGAPGQRVTISCTGSSSNIGAGYDVHWYQQLPGTAPKLLIYDNFNRPSGVPDRFSGSKSGTSASLAIIGLQTEDEADYYCQSYDSSIDHSPFGTGTKLTVL , and I need its recorded RBL-ER51 calcium signalling IC50 (Geomean), Human IgE.
0.134

Further cases:
Quick check: RBL-ER51 calcium signalling IC50 (Geomean), Human IgE of Antibody 18 IgG (antibody, V domains shown, Whole human IgG (section 1.4: IgG1)) VH: QVQLVQSGAEVKKPGATVKLSCKVYGYIFTDYNIYWVRQAPGKGLEWMGLIDPDNGETFYAEKFQGRATMTADTSSDRAYMELTSLTFEDTATYYCATVLLRSAKGGYDYWGRGTLVTVSS VL: QSVLTQPPSVSGAPGQRVTISCTGSSSNIGAGYDVHWYQQLPGTAPKLLIYDNFNRPSGVPDRFSGSKSGTSASLAIIGLQTEDEADYYCQSYDSHLQLSPFGTGTKLTVL ?
0.532

State the recorded RBL-ER51 calcium signalling IC50 (Geomean), Human IgE for this entry: Antibody 26 IgG (antibody, V domains shown) VH: QVQLVQSGAEVKKPGATVKLSCKVYGYIFTDYNIYWVRQAPGKGLEWMGLIDPDNGETFYAEKFQGRATMTADTSSDRAYMELTSLTFEDTATYYCATVSLKEAKGGYDYWGRGTLVTVSS VL: QSVLTQPPSVSGAPGQRVTISCTGSSSNIGAGYDVHWYQQLPGTAPKLLIYDNFNRPSGVPDRFSGSKSGTSASLAIIGLQTEDEADYYCQSYDSASRHAPFGTGTKLTVL
0.398

Requested read-out: RBL-ER51 calcium signalling IC50 (Geomean), Human IgE. Entry: Antibody 21 IgG (antibody, V domains shown) VH: QVQLVQSGAEVKKPGATVKLSCKVYGYIFTDYNIYWVRQAPGKGLEWMGLIDPDNGETFYAEKFQGRATMTADTSSDRAYMELTSLTFEDTATYYCATVTLKSAKGGYDYWGRGTLVTVSS VL: QSVLTQPPSVSGAPGQRVTISCTGSSSNIGAGYDVHWYQQLPGTAPKLLIYDNFNRPSGVPDRFSGSKSGTSASLAIIGLQTEDEADYYCQSYDSSSQLSPFGTGTKLTVL
0.306

The reported measurements were obtained from patent US20090060919A1.
